- Test system: MDR1 (human)
- method_notes: Permeability across apical to basolateral side in pig LLC-PK1 cells expressing human MDR1
- Format: ADME, cell-based, Sus scrofa
- experimental_conditions: read-out: permeability
property_name: Papp A→B (×10⁻⁶ cm/s)
Give your result in ×10⁻⁶ cm/s as a bare value.

Qu. Report Papp A→B for `CC(C)n1cnnc1-c1cccc(NC(=O)[C@H]2CN(c3ccc(C4CC4)nc3)CCO2)n1` please.
Ans. 10.7

###

- method_notes: Drug absorption in male Sprague-Dawley rat at 1 mg/kg, […] by LC-MS/MS analysis
- Type: ADME, organism-based
- experimental_conditions: in vivo, read-out: Drug absorption
property_name: Fa (%)
Give your result in % as a bare value.

Qu. Report Fa for `CC(C)n1cnnc1-c1cccc(NC(=O)[C@H]2CN(c3ccc(C4CC4)nc3)CCO2)n1` please.
Ans. 52

###

- study_system: Tyrosine-protein kinase ITK/TSK (Homo sapiens, UniProt Q08881)
- Sequence (Q08881 whole entry): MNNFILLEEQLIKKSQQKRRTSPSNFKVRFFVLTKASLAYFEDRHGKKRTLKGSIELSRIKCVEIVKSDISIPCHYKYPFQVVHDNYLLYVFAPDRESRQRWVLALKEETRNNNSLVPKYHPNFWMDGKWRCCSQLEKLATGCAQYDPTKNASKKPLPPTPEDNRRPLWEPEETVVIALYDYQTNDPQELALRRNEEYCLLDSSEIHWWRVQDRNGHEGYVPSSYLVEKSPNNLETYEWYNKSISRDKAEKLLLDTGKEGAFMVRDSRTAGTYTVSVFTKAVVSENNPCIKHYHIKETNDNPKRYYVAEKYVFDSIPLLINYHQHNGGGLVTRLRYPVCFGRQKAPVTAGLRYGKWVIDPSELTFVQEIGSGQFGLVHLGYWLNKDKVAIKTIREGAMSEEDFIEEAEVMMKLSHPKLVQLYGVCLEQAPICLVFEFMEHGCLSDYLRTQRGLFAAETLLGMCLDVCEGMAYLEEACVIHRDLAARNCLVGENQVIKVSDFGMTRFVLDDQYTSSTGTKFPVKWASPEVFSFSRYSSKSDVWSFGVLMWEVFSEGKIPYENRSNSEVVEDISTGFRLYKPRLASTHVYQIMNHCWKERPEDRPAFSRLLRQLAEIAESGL
property_name: pIC50
Keep in mind that pIC50 stands for -log10 of concentration in molar terms.

Qu. Report pIC50 for `CC(C)n1cnnc1-c1cccc(N2Cc3ccccc3C2=O)n1` please.
Ans. 5.90

###

- study_system: Ribosomal protein S6 kinase alpha-2 (Homo sapiens)
- Sequence (Q15349 whole entry): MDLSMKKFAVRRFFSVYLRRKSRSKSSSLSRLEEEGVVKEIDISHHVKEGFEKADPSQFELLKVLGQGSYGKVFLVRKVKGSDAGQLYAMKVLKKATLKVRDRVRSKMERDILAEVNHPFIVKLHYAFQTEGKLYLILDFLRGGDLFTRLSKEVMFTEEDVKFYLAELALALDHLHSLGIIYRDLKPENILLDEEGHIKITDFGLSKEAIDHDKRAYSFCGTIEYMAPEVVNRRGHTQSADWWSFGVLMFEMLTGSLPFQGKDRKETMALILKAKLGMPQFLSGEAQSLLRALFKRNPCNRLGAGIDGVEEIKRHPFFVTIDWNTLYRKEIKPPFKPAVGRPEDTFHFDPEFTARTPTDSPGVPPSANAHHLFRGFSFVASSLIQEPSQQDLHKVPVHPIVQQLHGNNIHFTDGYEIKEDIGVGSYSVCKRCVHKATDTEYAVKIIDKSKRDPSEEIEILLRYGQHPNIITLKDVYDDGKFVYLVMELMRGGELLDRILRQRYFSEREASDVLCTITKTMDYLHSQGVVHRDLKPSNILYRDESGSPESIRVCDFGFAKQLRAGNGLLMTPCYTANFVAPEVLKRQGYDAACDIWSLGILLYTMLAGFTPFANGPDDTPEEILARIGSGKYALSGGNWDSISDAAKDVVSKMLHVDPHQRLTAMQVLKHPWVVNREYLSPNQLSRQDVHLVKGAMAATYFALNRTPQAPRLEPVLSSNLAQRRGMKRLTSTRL
- method_notes: Inhibition of recombinant human full-length GST-tagged RSK3 expressed in insect cells
property_name: IC50

Qu. Report IC50 for `CC(C)n1cnnc1-c1cccc(NC(=O)[C@H]2CN(c3ccc(C4CC4)nc3)CCO2)n1` please.
Ans. ≤ 500 nM

###

- method_notes: Aqueous solubility of the compound in JP1 fluid at pH 1.2
- Type: physicochemical
property_name: solubility

Qu. Report solubility for `CC(C)n1cnnc1-c1cccc(NC(=O)[C@H]2CN(c3ccc(C4CC4)nc3)CCO2)n1` please.
Ans. > 200 µM

###

- study_system: Serine/threonine-protein kinase D2 (Homo sapiens)
- Sequence (Q9BZL6 whole entry): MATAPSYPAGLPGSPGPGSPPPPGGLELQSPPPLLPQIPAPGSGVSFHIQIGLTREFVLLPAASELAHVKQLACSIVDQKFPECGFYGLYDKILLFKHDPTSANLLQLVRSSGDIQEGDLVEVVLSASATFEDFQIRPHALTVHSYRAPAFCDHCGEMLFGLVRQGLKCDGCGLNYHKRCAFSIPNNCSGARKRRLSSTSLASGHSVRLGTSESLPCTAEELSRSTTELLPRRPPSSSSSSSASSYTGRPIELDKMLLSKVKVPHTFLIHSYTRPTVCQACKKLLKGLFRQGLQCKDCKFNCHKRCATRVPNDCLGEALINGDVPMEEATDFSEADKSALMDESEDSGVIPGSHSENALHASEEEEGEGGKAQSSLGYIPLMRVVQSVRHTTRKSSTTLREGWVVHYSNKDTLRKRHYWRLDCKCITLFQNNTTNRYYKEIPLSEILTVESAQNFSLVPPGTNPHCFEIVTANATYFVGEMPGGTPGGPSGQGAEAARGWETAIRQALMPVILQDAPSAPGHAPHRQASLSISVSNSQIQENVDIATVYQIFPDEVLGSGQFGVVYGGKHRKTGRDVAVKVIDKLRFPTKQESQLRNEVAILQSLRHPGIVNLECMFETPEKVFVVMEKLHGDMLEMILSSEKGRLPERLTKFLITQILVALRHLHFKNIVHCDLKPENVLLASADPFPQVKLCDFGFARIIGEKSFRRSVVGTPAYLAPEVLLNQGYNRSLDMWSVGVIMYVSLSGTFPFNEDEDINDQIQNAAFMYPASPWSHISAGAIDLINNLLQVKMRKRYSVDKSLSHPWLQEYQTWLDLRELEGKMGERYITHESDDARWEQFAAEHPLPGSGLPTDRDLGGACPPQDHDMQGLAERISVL
- method_notes: Inhibition of recombinant human full-length GST-tagged PRKD2 expressed in baculovirus expression system
property_name: IC50

Qu. Report IC50 for `CC(C)n1cnnc1-c1cccc(NC(=O)[C@H]2CN(c3ccc(C4CC4)nc3)CCO2)n1` please.
Ans. ≤ 500 nM
